# target system: T1, PUF4 RNA-binding domain (Saccharomyces cerevisiae, UniProt P25339 537-888)
# T1 sequence: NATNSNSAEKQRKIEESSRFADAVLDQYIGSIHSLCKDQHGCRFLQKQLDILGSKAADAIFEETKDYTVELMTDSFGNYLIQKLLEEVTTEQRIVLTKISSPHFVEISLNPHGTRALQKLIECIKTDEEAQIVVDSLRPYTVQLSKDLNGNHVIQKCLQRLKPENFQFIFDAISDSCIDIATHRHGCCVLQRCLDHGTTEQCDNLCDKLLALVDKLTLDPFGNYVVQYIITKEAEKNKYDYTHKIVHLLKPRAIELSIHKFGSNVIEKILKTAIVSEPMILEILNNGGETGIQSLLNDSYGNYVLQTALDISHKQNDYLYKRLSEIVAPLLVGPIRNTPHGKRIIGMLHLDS
# test description: Mg; RNA-MaP; 20 mM Na-HEPES pH 7.4, 30 mM KOAc, 0.75 mM MgCl2, 0.1% Tween-20, 5% glycerol, 0.1 mg/mL BSA, 2 mM DTT; 25 C; 0.0125-409.6 nM protein
# condition details: tags: N-His6-TEV cleaved; C-SNAP kept, Cy3B-labelled; label: tethered on chip by stalled RNA polymerase
pKd: −log10 of the molar value.
Classification by pKd | ranges: bottom end = under 7, midrange = from 7 up to 8, top end = 8 and over

binder	classification
UCUCUUGUUAUAUAUACGUCUCUU (ssRNA) [Id_ii_S1_P3E.3_K3.2_C3.2_[C-2G]_H3.2_A3.1_F3.1_T3.2_[T9C]_[A10G]]	midrange
Ib_S2_P4E.1_K4.1_C4.1_H4.1_[A4G]_A4.1_F4.1_[A9G]_T4.1 (ssRNA) RNA: UUUGAUUAAUAUGAUAUCGUUCUUUCUUGUGUAUUGUUCUUUCUCGAUAUCAUAUUAAUCUUU	midrange

INPUT: Which bin should I file Ie_S2_P3E.2_K3.1_C3.2_H3.1_[+3CT]_A3.1_F3.1_T3.2 (ssRNA) RNA: UUUGAUUAAUAUGAUAUCGUUCUUUCUCUUGUCUAUAUAUAUUCUUUCUCGAUAUCAUAUUAAUCUUU under?
OUTPUT: midrange

INPUT: Which bin should I file Id_ii_S4_P3E.4_K3.3_C3.2_[C-2T]_H3.3_A3.1_F3.1_T3.2 (ssRNA) RNA: UUUGACAACUGAUCGUUCUUUCUUUACACUAUAUAUUCUUUCUCGAUCAGUUGUCUUU under?
OUTPUT: bottom end

INPUT: Which bin should I file Id_ii_S2_P3E.3_K3.2_C3.2_[T-1A]_H3.2_A3.1_F3.1_T3.2_[T9C]_[A10C] (ssRNA) RNA: UUUGAUUAAUAUGAUAUCGUUCUUUCUCAUAUAUAUACCUUCUUUCUCGAUAUCAUAUUAAUCUUU under?
OUTPUT: bottom end

INPUT: Which bin should I file Ie_S4_P4E.1_K4.1_C4.1_H4.1_[+4T]_A4.1_F4.1_T4.1 (ssRNA) RNA: UUUGACAACUGAUCGUUCUUUCUUGUAUUAUUAUUCUUUCUCGAUCAGUUGUCUUU under?
OUTPUT: top end
